Target Under Test: Glucose transporter (Leishmania mexicana) (UniProt O61059)
Assay Overview: ST_JUDE_LEISH: Cytotoxicity at 2uM final concentration against transgenic Leishmania Mexicana promastigotes LmGT2 that are glucose transport deficient and complemented with the L. Mexicana glucose transporter 2. Activity is measured by DNA content using SYBR green in vitro
Type: functional
Parameter Measured: inhibition

[
  {
    "Compound": "COc1c(C2CCN(CCCCNC(=O)C=Cc3cc4cc(Cl)ccc4o3)CC2)ccc2c1CCCC2",
    "Target Under Test": "Glucose transporter (Leishmania mexicana) (UniProt O61059)",
    "inhibition": "0.08%"
  },
  {
    "Compound": "CCn1c(SCc2ccccc2)nc2c1c(=O)[nH]c(=O)n2C",
    "Target Under Test": "Glucose transporter (Leishmania mexicana) (UniProt O61059)",
    "inhibition": "-1.06%"
  },
  {
    "Compound": "O=C(Cc1c[nH]cn1)Nc1cccc(-c2ccc(-c3nc4cc(F)ccc4[nH]3)cc2)c1",
    "Target Under Test": "Glucose transporter (Leishmania mexicana) (UniProt O61059)",
    "inhibition": "7.18%"
  },
  {
    "Compound": "COc1cc(NC(=O)/C=C/c2cc(F)cc(F)c2F)cc(OCCN2CCN(CCN3CCOCC3)CC2)c1",
    "Target Under Test": "Glucose transporter (Leishmania mexicana) (UniProt O61059)",
    "inhibition": "2.54%"
  }
]

We next turn to a different compound, shown below.
Reported inhibition, compound NC1=NC(CCc2ccccc2)N(c2ccc(Cl)cc2)C(N)=N1 (centres undefined) : ____ 1.06%
